Reported log2 fold change of degron read counts values for a set of sequences
- testedOn: T1, CRBN, Q96SW2
- T1 chain: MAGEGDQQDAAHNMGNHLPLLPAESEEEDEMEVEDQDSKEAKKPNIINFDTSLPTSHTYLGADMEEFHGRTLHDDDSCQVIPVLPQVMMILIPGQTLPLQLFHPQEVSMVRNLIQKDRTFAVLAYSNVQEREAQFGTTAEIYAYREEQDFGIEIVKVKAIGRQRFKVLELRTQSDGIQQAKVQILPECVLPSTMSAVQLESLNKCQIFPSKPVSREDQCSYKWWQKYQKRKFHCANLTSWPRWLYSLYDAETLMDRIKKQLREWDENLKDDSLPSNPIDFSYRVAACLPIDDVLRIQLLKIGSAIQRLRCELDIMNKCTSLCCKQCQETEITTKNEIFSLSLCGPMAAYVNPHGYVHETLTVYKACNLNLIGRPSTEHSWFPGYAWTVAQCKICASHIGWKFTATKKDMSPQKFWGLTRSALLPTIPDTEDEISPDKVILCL
- procedureDetails: log2 fold change of degron read counts, EGFP-low vs EGFP+ sorted cells (limma voom), compound-induced degradation; higher = more compound-induced degradation of the degron-EGFP fusion; degrons are variants of IKZF1/3 zinc finger 2; compound dose not given here;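 note: pooled lentiviral library of zinc finger degron-EGFP fusions in mCherry-positive Jurkat cells, FACS-sorted after compound exposure, with degron abundance counted by next-generation sequencing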
- studyConditions: Jurkat; 18 h; compound: compound 33 (diphenyl IMiD analogue)
Whole data set: some 8,300 sequences, median “log2 fold change of degron read counts, EGFP-low vs EGFP+ sorted cells (limma voom), compound-induced degradation” near -1.1, cut for the highest 2% near 3.2. The entries come from a sample that favours the highest values as a whole.
valueKind: log2 fold change of degron read counts

FACEICGAYFTQKGNLLRHIKL [46F_47A_49E_50I_52G_53A_54Y_55F_67L_, Q9UKT9]	0.71
FICEICGAYFTQKGNLLRHIKL [46F_47I_49E_50I_52G_53A_54Y_55F_67L_, Q9UKT9]	2.34
FECNQCGHIFTQKGNLLRHIKL [46F_47E_49N_50Q_52G_53H_54I_55F_67L_, Q9UKT9]	-3.5
FYCEICGAYFTQKGNLLRHIKL [46F_47Y_49E_50I_52G_53A_54Y_55F_67L_, Q9UKT9]	2.12
FGCEICGAYFTQKGNLLRHIKL [46F_47G_49E_50I_52G_53A_54Y_55F_67L_, Q9UKT9]	2.58
FVCNQCGRVFTQKGNLLRHIKL [46F_47V_49N_50Q_52G_53R_54V_55F_67L_, Q9UKT9]	-2.56
FRCEICGAYFTQKGNLLRHIKL [46F_47R_49E_50I_52G_53A_54Y_55F_67L_, Q9UKT9]	0.747
